Substrate: F protein of hPIV Type 3 (hPIV3 C243) (human parainfluenza virus type 3, strain C243)
assay-details: cell-based or functional assay
property-measured: EC50 (nM), plaque reduction, hPIV3 C243, LLC-MK2 cells
Give the number; nM is assumed, so skip it.

Check out these entries, answers already filled in.
WDEFDASISQVNEKINQSLEEIRKSDELLHNEAAAKK (modifications not checked) [Compound 45] : 36.3
DEFDKKKIEEVNKKIEESLKKIEESDKKLEEVEAAAKK (modifications not checked) [Compound 22] : 65.4
SDEFDKKIEEVNKKIEESLKKIEESDKKLGSGSGK (modifications not checked) [Compound 20] : 59.5

Now look at this entry.
The measured EC50 (nM), plaque reduction, hPIV3 C243, LLC-MK2 cells associated with SDEFDKKIEEVNKKIEESLKKIEESDKKLEAAAKK (modifications not checked) [Compound 16] reads 59
